target.of.assay: Recombinant GST-Tie2 (Homo sapiens)
Sequence (Q02763 23-1124): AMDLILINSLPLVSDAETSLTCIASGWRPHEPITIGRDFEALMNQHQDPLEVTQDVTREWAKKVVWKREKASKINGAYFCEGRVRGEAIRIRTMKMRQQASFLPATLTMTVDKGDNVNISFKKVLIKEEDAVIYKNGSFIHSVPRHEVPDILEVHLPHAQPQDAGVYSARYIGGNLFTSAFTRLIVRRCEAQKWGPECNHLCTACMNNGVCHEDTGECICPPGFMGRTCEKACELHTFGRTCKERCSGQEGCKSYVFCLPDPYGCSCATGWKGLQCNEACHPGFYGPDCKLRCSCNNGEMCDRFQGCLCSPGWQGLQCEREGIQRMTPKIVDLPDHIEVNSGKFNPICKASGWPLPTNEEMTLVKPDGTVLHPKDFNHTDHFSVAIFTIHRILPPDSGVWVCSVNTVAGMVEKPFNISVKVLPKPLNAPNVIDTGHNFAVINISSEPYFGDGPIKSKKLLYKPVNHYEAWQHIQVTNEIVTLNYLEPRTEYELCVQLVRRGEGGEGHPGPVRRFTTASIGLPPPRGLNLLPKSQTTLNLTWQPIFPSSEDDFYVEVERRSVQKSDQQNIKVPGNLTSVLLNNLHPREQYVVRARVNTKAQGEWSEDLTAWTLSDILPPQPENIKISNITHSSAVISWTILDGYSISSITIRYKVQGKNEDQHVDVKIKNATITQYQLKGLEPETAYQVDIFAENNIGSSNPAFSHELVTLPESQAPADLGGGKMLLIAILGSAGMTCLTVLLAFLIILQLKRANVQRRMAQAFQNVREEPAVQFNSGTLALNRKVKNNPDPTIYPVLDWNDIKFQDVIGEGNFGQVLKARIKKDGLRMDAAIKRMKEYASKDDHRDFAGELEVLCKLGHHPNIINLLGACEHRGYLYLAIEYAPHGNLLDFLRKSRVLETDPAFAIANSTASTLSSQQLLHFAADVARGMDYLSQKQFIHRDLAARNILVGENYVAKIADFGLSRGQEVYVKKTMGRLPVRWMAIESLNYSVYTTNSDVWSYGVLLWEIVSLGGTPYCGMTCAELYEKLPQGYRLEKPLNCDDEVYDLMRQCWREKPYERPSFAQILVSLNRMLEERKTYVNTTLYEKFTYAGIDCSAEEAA
assay.info: Tie2 fluorescence polarization kinase activity assay (TIE2-FP)
condition.label: activated Tie2, 200 μM ATP, peptide substrate
Counter-ions that a name gives are not always drawn.
measured.quantity: IC50

Below are worked cases with known answers.
compound | observed
CN(c1ccc2c(c1)nc(Nc1ccc(Cl)cc1)n2C)c1ccnc(Nc2ccc(CS(C)(=O)=O)cc2)n1 | < 100 nM
CN(c1ccc2c(c1)nc(Nc1ccccc1F)n2C)c1ccnc(Nc2ccc(CS(C)(=O)=O)cc2)n1 | 100 to 1000 nM
CN(c1ccc2c(c1)nc(NC(=O)Cc1cccc(F)c1F)n2C)c1ccnc(Nc2ccc(CS(C)(=O)=O)cc2)n1 | 1000 to 10000 nM
CN(c1ccc2c(c1)nc(NC(=O)C1(c3ccccc3)CC1)n2C)c1ccnc(Nc2ccc(CS(C)(=O)=O)cc2)n1 | < 100 nM
Cc1ccc(Nc2nccc(N(C)c3ccc4c(c3)nc(NCCc3ccccc3)n4C)n2)cc1S(N)(=O)=O [Example 95, hydrochloride] | 100 to 1000 nM

Q. # query: IC50 | item CN(c1ccc2c(c1)nc(Nc1cccc(F)c1)n2C)c1ccnc(Nc2ccc(CS(C)(=O)=O)cc2)n1 | system: Recombinant GST-Tie2 (Homo sapiens)
A. 100 to 1000 nM

Q. Provide the documented IC50 with Recombinant GST-Tie2 (Homo sapiens) as the system for CN(c1ccc2c(c1)nc(NC(=O)Cc1cccs1)n2C)c1ccnc(Nc2cccc(CS(C)(=O)=O)c2)n1
A. 1000 to 10000 nM
